Hello, the source for this data is patent US20250282757A1, in case you need it.

assay-explanation: Pharmacokinetic study in monkeys
Format: in vivo, cynomolgus monkeys
experimental-setup: cynomolgus monkey, plasma; male cynomolgus monkeys, 5 mg/kg po; read-out: Cmax
Listed below: Cmax values for each entry.
Write it as a number; the unit ng/mL goes unstated.

[
  {
    "smiles-code": "N#Cc1ccc(OCc2cccc(OC3CCN(Cc4nc5ccc(C(=O)O)cc5n4C[C@@H]4CCO4)CC3)n2)c(F)c1",
    "measurement-units": "ng/mL",
    "Cmax": 214
  }
]

Field: next compound
Incoming: # lookup: Cmax of `O=C(O)c1ccc2nc(CN3CCC(Oc4cccc(COc5ccc(Cl)cc5F)n4)CC3)n(C[C@@H]3CCO3)c2c1`
Outgoing: 235

* * *

assay-system: GLP-1R (Homo sapiens)
assay-explanation: Agonist activity on GLP-1R, HTRF cAMP detection in stably transfected GLP-1R/HEK293 cells
experimental-setup: 30 min incubation
pEC50: −log10 of the molar value.
The label depends only on pEC50: True if it is at least 9, False if it is smaller.

Incoming: Item `N#Cc1ccc(OCc2cccc(SC3CCN(Cc4nc5ccc(C(=O)O)cc5n4C[C@@H]4CCO4)CC3)n2)c(F)c1` with pEC50 of 9 or above?
Outgoing: False

Incoming: Item `N#Cc1ccc(OCc2cccc(OC3CCN(Cc4nc5ccc(C(=O)O)cc5n4Cc4cncn4CC4CC4)CC3)n2)c(F)c1` with pEC50 of 9 or above?
Outgoing: True

Incoming: Item `N#CCC1(Cn2c(CN3CCC(Oc4cccc(COc5ccc(Cl)cc5F)n4)CC3)nc3ccc(C(=O)O)cc32)CC1` with pEC50 of 9 or above?
Outgoing: True

Incoming: Item `N#Cc1ccc(COc2cccc(COC3CCN(Cc4nc5ccc(C(=O)O)cc5n4C[C@@H]4CCO4)CC3)n2)c(F)c1` with pEC50 of 9 or above?
Outgoing: False

Incoming: Item `CCN1CCC[C@H]1Cn1c(CN2CCC(Oc3cccc(COc4ccc(C#N)cc4F)n3)CC2)nc2ccc(C(=O)O)cc21` with pEC50 of 9 or above?
Outgoing: False

Incoming: Item `CCn1cncc1Cn1c(CN2CCC(Oc3cccc(COc4ccc(Br)cc4F)n3)CC2)nc2ccc(C(=O)O)cc21` with pEC50 of 9 or above?
Outgoing: True

* * *

assay-explanation: Pharmacokinetic study in monkeys
Assay type: in vivo, cynomolgus monkeys
experimental-setup: cynomolgus monkey, plasma; male cynomolgus monkeys, 1 mg/kg iv; read-out: Vdss
property-name: Vd (L/kg)
Write it as a number; the unit L/kg goes unstated.

[
  {
    "compound": "O=C(O)c1ccc2nc(CN3CCC(Oc4cccc(COc5ccc(Cl)cc5F)n4)CC3)n(C[C@@H]3CCO3)c2c1 [Compound 49]",
    "recorded-measurement": 0.29
  }
]

Incoming: # lookup: Vd of N#Cc1ccc(OCc2cccc(OC3CCN(Cc4nc5ccc(C(=O)O)cc5n4C[C@@H]4CCO4)CC3)n2)c(F)c1 [Compound 55]
Outgoing: 0.4

* * *

Listed below: half-life values for each entry.
assay-explanation: Pharmacokinetic study in mice
Format: in vivo, CD-1 mice
experimental-setup: mouse, plasma; male CD-1 mice, 5 mg/kg po; read-out: T½ (converted)
Write it as a number; the unit h goes unstated.

[
  {
    "smiles-code": "N#Cc1ccc(OCc2cccc(OC3CCN(Cc4nc5c(F)cc(C(=O)O)cc5n4C[C@@H]4CCO4)CC3)n2)c(F)c1",
    "half-life [h]": 1
  },
  {
    "smiles-code": "O=C(O)c1cc(F)c2nc(CN3CCC(Oc4cccc(COc5ccc(Cl)cc5F)n4)CC3)n(C[C@@H]3CCO3)c2c1",
    "half-life [h]": 1.4
  },
  {
    "smiles-code": "O=C(O)c1ccc2nc(CN3CCC(Oc4cccc(COc5ccc(Cl)cc5F)n4)CC3)n(C[C@@H]3CCO3)c2c1",
    "half-life [h]": 3.2
  }
]

Field: next molecule
Incoming: # lookup: half-life of `N#Cc1ccc(OCc2cccc(OC3CCN(Cc4nc5ccc(C(=O)O)cc5n4C[C@@H]4CCO4)CC3)n2)c(F)c1`
Outgoing: 1.7

* * *

Listed below: Max activity values for each entry.
assay-system: GLP-1R (Homo sapiens, UniProt P43220)
Sequence (P43220 24-463): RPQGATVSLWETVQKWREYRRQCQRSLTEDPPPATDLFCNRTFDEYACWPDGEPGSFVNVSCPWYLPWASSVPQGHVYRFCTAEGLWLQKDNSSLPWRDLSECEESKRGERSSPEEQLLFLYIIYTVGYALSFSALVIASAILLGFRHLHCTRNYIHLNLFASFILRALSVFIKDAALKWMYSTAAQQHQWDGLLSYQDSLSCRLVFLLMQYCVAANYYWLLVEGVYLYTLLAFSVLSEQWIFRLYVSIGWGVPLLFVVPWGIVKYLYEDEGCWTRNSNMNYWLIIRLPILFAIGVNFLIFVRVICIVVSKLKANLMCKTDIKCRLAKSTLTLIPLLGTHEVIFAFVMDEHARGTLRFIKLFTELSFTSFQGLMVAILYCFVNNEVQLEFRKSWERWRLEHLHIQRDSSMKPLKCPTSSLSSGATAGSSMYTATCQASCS
assay-explanation: Agonist activity on GLP-1R, HTRF cAMP detection in stably transfected GLP-1R/HEK293 cells
Type: cell-based
experimental-setup: relative to top concentration of reference GLP-1(7-37)
Write it as a number; the unit % goes unstated.

[
  {
    "smiles-code": "N#Cc1ccc(OCc2cccc(OC3CCN(Cc4nc5ccc(C(=O)O)nc5n4C[C@@H]4CCO4)CC3)n2)c(F)c1",
    "Max activity, %": 112.0
  },
  {
    "smiles-code": "CCn1cncc1Cn1c(CN2CCC(Sc3cccc(COc4ccc(C#N)cc4F)n3)CC2)nc2ccc(C(=O)O)cc21",
    "Max activity, %": 121.0
  },
  {
    "smiles-code": "CCn1cncc1Cn1c(CN2CCC(Oc3cccc(COc4ccc(C#N)cc4F)c3)CC2)nc2ccc(C(=O)O)cc21",
    "Max activity, %": 99.4
  }
]

Incoming: # lookup: Max activity of `N#Cc1ccc(OCc2cccc(COC3CCN(Cc4nc5ccc(C(=O)O)cc5n4C[C@@H]4CCO4)CC3)n2)c(F)c1`
Outgoing: 76.6

Incoming: # lookup: Max activity of `CC(C)n1cncc1Cn1c(CN2CCC(Oc3cccc(COc4ccc(Br)cc4F)c3)CC2)nc2ccc(C(=O)O)cc21`
Outgoing: 121.2

Incoming: # lookup: Max activity of `C#Cc1ccc(OCc2cccc(OC3CCN(Cc4nc5ccc(C(=O)O)cc5n4CC4(CC#N)CC4)CC3)n2)c(F)c1`
Outgoing: 133.4

Incoming: # lookup: Max activity of `C#Cc1ccc(OCc2cccc(OC3CCN(Cc4nc5ccc(C(=O)O)cc5n4C[C@@H]4CCO4)CC3)n2)c(F)c1`
Outgoing: 109.1

Incoming: # lookup: Max activity of `Cc1ncc(Cn2c(CN3CCC(Oc4cccc(COc5ccc(C#N)cc5F)n4)CC3)nc3ccc(C(=O)O)cc32)n1C`
Outgoing: 99.8

* * *

assay-explanation: Pharmacokinetic study in mice
Type: in vivo, CD-1 mice
experimental-setup: mouse, plasma; male CD-1 mice, 5 mg/kg po; read-out: AUC0-inf
Description: The pharmacokinetic properties of some compounds of the present invention were evaluated in mice pharmacokinetic experiments. SPF male CD-1 mice from Beijing Vital River Laboratory Animal Technology Co., Ltd were used with 6 mice in each group. Compounds were dissolved in 10% solutol/90% saline. A single intravenous administration was given at a dose of 1 mg/kg in a volume of 1 mL/kg. A single intragastric administration was given at a dose of 5 mg/kg in a volume of 1 mL/kg. […]
property-name: AUC(0-inf) (ng·h/mL)
Write it as a number; the unit ng·h/mL goes unstated.

[
  {
    "smiles-code": "N#Cc1ccc(OCc2cccc(OC3CCN(Cc4nc5c(F)cc(C(=O)O)cc5n4C[C@@H]4CCO4)CC3)n2)c(F)c1",
    "measurement-units": "ng·h/mL",
    "AUC(0-inf)": 2100
  }
]

Incoming: # lookup: AUC(0-inf) of `N#Cc1ccc(OCc2cccc(OC3CCN(Cc4nc5ccc(C(=O)O)cc5n4C[C@@H]4CCO4)CC3)n2)c(F)c1`
Outgoing: 1040

Incoming: # lookup: AUC(0-inf) of `O=C(O)c1ccc2nc(CN3CCC(Oc4cccc(COc5ccc(Cl)cc5F)n4)CC3)n(C[C@@H]3CCO3)c2c1`
Outgoing: 1760

Incoming: # lookup: AUC(0-inf) of `O=C(O)c1cc(F)c2nc(CN3CCC(Oc4cccc(COc5ccc(Cl)cc5F)n4)CC3)n(C[C@@H]3CCO3)c2c1`
Outgoing: 2580

* * *

assay-system: GLP-1R (Homo sapiens, UniProt P43220)
assay-explanation: Agonist activity on GLP-1R, HTRF cAMP detection in stably transfected GLP-1R/HEK293 cells
Type: cell-based
experimental-setup: relative to top concentration of reference GLP-1(7-37)
property-name: Max activity (%)
Write it as a number; the unit % goes unstated.

// solved cases for Max activity follow
[
  {
    "smiles-code": "N#Cc1ccc(OCc2cccc(OC3CCN(Cc4nc5ccc(C(=O)O)cc5n4CC4COC4)CC3)n2)c(F)c1",
    "recorded-measurement": 90.7
  },
  {
    "smiles-code": "N#CCC1(Cn2c(CN3CCC(Oc4cccc(OCc5ccc(C#N)cc5F)c4)CC3)nc3c(F)cc(C(=O)O)cc32)CC1",
    "recorded-measurement": 114.9
  },
  {
    "smiles-code": "N#Cc1ccc(OCc2cccc(OC3CCN(Cc4nc5ccc(C(=O)O)cc5n4C[C@@H]4CCO4)CC3)n2)c(F)c1",
    "recorded-measurement": 111.5
  },
  {
    "smiles-code": "N#CCC1(Cn2c(CN3CCC(Oc4cccc(CSc5ccc(C#N)cc5F)n4)CC3)nc3ccc(C(=O)O)cc32)CC1",
    "recorded-measurement": 141.7
  },
  {
    "smiles-code": "N#Cc1ccc(SCc2cccc(OC3CCN(Cc4nc5ccc(C(=O)O)cc5n4C[C@@H]4CCO4)CC3)n2)c(F)c1",
    "recorded-measurement": 110.2
  }
]

Incoming: # lookup: Max activity of `CCn1cncc1Cn1c(CN2CCC(Oc3cccc(COc4ccc(Cl)cc4F)n3)CC2)nc2ccc(C(=O)O)cc21`
Outgoing: 109.7

Incoming: # lookup: Max activity of `CCn1cncc1Cn1c(CN2CCC(Oc3cccc(COc4ccc(Cl)cc4F)c3)CC2)nc2ccc(C(=O)O)cc21`
Outgoing: 91.3

Incoming: # lookup: Max activity of `CC(C)n1cncc1Cn1c(CN2CCC(Oc3cccc(COc4ccc(C#N)cc4F)c3)CC2)nc2ccc(C(=O)O)cc21`
Outgoing: 114.3
